Hello, the source for this data is patent US20170174769A1, in case you need it.

- target-or-system: T1, extracellular domain of human KLB expressed with C-terminal HA and hexahistidine tags (human, UniProt Q86Z14 1-996)
- T1 construct: also called hKLB-HA-6His; hKLB-HA-6his
- T1 sequence: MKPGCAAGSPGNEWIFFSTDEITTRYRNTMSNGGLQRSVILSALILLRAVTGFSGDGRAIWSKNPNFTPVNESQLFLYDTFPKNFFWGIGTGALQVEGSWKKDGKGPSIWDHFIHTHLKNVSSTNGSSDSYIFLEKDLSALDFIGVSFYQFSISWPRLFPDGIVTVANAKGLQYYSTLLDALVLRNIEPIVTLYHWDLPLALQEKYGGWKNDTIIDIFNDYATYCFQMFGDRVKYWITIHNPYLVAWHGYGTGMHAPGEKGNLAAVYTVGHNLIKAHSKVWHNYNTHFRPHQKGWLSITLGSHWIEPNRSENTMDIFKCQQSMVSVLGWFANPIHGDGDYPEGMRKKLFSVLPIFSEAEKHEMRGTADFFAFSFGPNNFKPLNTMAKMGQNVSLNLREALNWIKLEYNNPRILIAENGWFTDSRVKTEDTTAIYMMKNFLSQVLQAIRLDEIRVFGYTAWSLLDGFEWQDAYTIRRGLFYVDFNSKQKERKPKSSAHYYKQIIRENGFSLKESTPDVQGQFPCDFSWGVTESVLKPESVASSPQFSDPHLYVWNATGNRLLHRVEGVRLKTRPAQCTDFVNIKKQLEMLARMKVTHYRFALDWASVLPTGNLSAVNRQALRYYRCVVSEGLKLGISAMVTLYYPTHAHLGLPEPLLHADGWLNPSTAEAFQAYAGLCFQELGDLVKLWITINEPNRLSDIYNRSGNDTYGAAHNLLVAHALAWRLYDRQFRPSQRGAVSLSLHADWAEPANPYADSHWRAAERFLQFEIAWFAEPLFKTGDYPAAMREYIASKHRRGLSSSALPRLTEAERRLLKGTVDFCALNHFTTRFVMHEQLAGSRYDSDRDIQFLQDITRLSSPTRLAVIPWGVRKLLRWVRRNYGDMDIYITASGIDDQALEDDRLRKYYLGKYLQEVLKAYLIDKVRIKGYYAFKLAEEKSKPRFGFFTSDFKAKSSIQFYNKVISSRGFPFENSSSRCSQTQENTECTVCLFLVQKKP
- assay-procedure: SPR, mAb captured, 37 C
readout-name: 20 nM hKLB-HA-6His Bind (RU)
Give bare numbers, in RU.

Some binders with known 20 nM hKLB-HA-6His Bind (RU) results, for comparison:
H2aM8109N (antibody, V domains shown, mouse IgG2 Fc (H2aM prefix)) VH: QVQVVESGGGVVQPGRSLRLSCAASGFTFSSYGLHWVRQAPGKGLEWVAVIWHDGSHKYYADSVKGRFTISRDNSKNTLYLQMNSLRAEDTAVYYCARDGIPVAEDYYFYGMDVWGQGTTVTVSS VL: DIQMTQSPSSLSASVGDRVTITCRASQGIRNDLGWYQQKPGKAPKRLIYAASSLQSGVPSRFSGSGSGTEFTLTISSLQPEDFAIYYCLQHNSLTFGGGTKVEIK : 36.8
H1H8898P (antibody, V domains shown, H1H Fc prefix (human Fc)) VH: QVQLVESGGGLVKPGGSLRLSCAASGFIFSDYYMSWIRQAPGKGLDWISYISPSGSTIYYADSVKGRFTISRDNAKNSLYLQMNSLRADDTAVYYCARTGIQLWSVYFDYWGQGTLVTVSS VL: EIVMTQSPATLSVSPGERATLSCRASQSVGSNLAWYQQKPGQAPRLLIYGASTRANGIPARFSGSGSGTEFTLTISGLQSEDFAVYYCQQYNNWPTFGQGTKLEIK : -1.9

Next binder, 20 nM hKLB-HA-6His Bind (RU) to be filled in.
Exam item: Record request: 20 nM hKLB-HA-6His Bind (RU) value, item H4H8871P (antibody, V domains shown, human IgG4 Fc (H4H prefix)) VH: QVQLQESGPGLVKPSETLSLTCTVSGASISSYYWSWIRQPPGKGLEWIGYIYSSGIIKYNPSLKSRVTISADTSKNQFSLKLSSVTAADTAVYYCARHGIFGVMEYFQRWGQGTLVTVSS VL: DIQMTQSPSSLSASIGDRVTITCQASQDIGNFLNWYHQKPGKAPTLLIYDASNMETGVPSRFRGSGSGTYFTFIISSLQPEDVATYYCQQYDNLPLTFGGGTKVEIK
Marked response: -0.9
